Target protein (sequence): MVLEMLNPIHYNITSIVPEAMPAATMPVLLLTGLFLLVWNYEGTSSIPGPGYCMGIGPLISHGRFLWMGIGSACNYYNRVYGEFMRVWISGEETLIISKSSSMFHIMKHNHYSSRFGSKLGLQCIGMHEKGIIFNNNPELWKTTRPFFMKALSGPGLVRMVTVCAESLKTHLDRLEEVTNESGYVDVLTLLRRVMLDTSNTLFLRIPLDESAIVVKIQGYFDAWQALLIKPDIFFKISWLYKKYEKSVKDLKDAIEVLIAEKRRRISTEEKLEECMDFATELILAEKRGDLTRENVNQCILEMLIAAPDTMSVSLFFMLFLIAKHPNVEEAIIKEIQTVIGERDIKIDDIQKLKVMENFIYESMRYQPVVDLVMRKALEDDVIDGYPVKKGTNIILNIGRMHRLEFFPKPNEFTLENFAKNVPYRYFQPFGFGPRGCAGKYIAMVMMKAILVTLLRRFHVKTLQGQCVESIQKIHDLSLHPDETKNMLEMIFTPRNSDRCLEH
pIC50: −log10 of the molar value.
assay-endpoint: pIC50

>>> numeric_result("COc1c2occc2c(NCc2ccc(Br)cc2)c2ccc(=O)oc12 [4b]")
6.05

====

XXO %Inh listing for selected compounds.
assay: Inhibition of superoxide radical formation by xanthine/xanthine oxidase (XXO); type: biochemical; conditions: screening concentration 500 µM
From the text: 1. […]
assay-endpoint: XXO %Inh (%)

>>> numeric_result("COc1c2c(c(NC(=S)Nc3ccccc3)c3ccoc13)C(OC)CC(=O)O2 (stereo not drawn)")
24
>>> numeric_result("CCCCCC(=O)N(C(=O)CCCCC)c1c2ccoc2c(OC)c2oc(=O)ccc12")
2
>>> numeric_result("COc1c2occc2c(NCc2ccccc2)c2ccc(=O)oc12")
34
>>> numeric_result("COc1c2occc2c(NC(=O)c2cccc([N+](=O)[O-])c2)c2ccc(=O)oc12")
33
>>> numeric_result("COc1c2occc2c(NC(=O)c2ccc(Br)cc2)c2ccc(=O)oc12")
25
>>> numeric_result("COc1c2occc2c(NC(=O)C23CC4CC(CC(C4)C2)C3)c2ccc(=O)oc12")
47

====

test: Inhibition of superoxide radical formation by xanthine/xanthine oxidase (XXO); assay type: biochemical; conditions: positive control; read-out: XXO IC50 (standard)
assay-endpoint: IC50

>>> result("O=C(O)c1cc(O)c(O)c(O)c1 [Gallic acid, reference compound]")
"2800 nM"

====

assay-endpoint: melting point

>>> result("COc1c2occc2c(NC(=O)c2cccc([N+](=O)[O-])c2)c2ccc(=O)oc12")
"267 to 268 °C"
>>> result("COc1c2occc2c(NCc2ccccc2)c2ccc(=O)oc12")
"168 to 169 °C"
>>> result("COc1c2occc2c(NS(=O)(=O)c2ccccc2)c2ccc(=O)oc12")
"208 to 209 °C"
>>> result("CCC(=O)Nc1c2ccoc2c(OC)c2oc(=O)ccc12")
"233 to 234 °C"
>>> result("COc1c2c(c(NC(=S)Nc3ccccc3)c3ccoc13)C(OC)CC(=O)O2 (centres unmarked)")
"191 to 192 °C"
>>> result("COc1c2occc2c(NC(C)=O)c2ccc(=O)oc12")
"251 to 252 °C"
>>> result("COc1c2occc2c(NC(=O)c2ccc(C(F)(F)F)cc2)c2ccc(=O)oc12")
"284 to 286 °C"
>>> result("COc1c2occc2c(N)c2ccc(=O)oc12")
"238 to 239 °C"
>>> result("COc1c2occc2c(NC(=O)C23CC4CC(CC(C4)C2)C3)c2ccc(=O)oc12")
"240 to 242 °C"
>>> result("CCCCCC(=O)N(C(=O)CCCCC)c1c2ccoc2c(OC)c2oc(=O)ccc12")
"170 to 171 °C"
>>> result("COc1c2occc2c(NC(=O)c2ccco2)c2ccc(=O)oc12")
"227 to 228 °C"
>>> result("COc1c2occc2c(NC(=O)c2ccccc2)c2ccc(=O)oc12")
"220 to 222 °C"
>>> result("COc1c2occc2c(NC(=O)c2cccs2)c2ccc(=O)oc12")
"213 to 214 °C"
>>> result("COc1c2occc2c([N+](=O)[O-])c2ccc(=O)oc12")
"237 to 238 °C"
>>> result("COc1ccc(C(=O)Nc2c3ccoc3c(OC)c3oc(=O)ccc23)cc1")
"211 to 212 °C"
>>> result("COc1c2occc2c(NC(=O)c2ccc(Br)cc2)c2ccc(=O)oc12")
"293 to 294 °C"
>>> result("COc1c2occc2c(NC(=O)C(C)C)c2ccc(=O)oc12")
"234 to 235 °C"
>>> result("COc1c2occc2c(NC(=O)c2ccc(F)cc2)c2ccc(=O)oc12")
"276 to 277 °C"
>>> result("COc1c2occc2c(NC(=O)C(C)(C)C)c2ccc(=O)oc12")
"210 to 212 °C"
>>> result("COc1c2occc2c(NCc2ccc(Br)cc2)c2ccc(=O)oc12")
"150 to 151 °C"

====

tested on: T47-D; test: MTT cytotoxicity, 48 h, without UVA; format: cell-based, human; conditions: Homo sapiens, T47D, light or radiation study; 48 h; without UVA; I = %inhibition lower than 50%; read-out: Cytotoxic activity T47-D %Inhibition
assay-endpoint: inhibition at 50 µg/mL (%)

>>> numeric_result("COc1c2occc2cc2ccc(=O)oc12 [8-MOP, 8-methoxypsoralen, reference compound]")
16
>>> numeric_result("COc1c2occc2c(NC(=O)C(C)C)c2ccc(=O)oc12 [3k]")
36
>>> numeric_result("COc1c2occc2c(NC(=O)c2ccccc2)c2ccc(=O)oc12 [3a]")
45
>>> numeric_result("COc1c2occc2c(NC(=O)C(C)(C)C)c2ccc(=O)oc12 [3l]")
21
>>> numeric_result("COc1c2occc2c(NC(C)=O)c2ccc(=O)oc12 [3i]")
20
